Molecular target: Eg5 ATPase (Homo sapiens, UniProt P52732)
Sequence (P52732 1-1056): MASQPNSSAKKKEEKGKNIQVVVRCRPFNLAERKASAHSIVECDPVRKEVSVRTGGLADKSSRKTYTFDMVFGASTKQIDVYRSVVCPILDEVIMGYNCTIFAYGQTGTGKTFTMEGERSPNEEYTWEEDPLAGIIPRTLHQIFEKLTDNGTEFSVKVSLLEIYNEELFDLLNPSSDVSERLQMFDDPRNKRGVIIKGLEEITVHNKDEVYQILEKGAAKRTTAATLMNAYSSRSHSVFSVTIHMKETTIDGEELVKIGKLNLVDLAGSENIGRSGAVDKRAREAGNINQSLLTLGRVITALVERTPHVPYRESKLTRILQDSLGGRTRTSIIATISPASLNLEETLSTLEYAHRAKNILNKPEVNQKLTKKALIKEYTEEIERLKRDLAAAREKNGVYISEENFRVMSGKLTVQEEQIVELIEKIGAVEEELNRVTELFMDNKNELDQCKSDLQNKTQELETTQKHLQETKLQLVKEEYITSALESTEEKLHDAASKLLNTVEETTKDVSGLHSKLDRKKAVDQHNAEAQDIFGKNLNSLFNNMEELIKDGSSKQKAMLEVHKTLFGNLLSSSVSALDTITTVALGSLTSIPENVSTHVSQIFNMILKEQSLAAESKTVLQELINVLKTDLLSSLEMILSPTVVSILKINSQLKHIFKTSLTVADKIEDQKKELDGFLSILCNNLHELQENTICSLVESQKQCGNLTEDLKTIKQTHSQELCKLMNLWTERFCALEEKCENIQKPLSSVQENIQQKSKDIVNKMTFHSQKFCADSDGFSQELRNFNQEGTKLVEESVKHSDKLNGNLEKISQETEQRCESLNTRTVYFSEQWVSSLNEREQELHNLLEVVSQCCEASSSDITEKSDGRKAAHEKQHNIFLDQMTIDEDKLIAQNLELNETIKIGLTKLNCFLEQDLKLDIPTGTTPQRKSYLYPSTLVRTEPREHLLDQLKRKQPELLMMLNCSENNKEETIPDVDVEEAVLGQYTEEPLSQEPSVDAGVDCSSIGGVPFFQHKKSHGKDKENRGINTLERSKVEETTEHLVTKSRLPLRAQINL
Assay: Microtubule-activated Eg5 ATPase inhibition assay (Kinesin ELISA kit BK060)
Conditions: read-out: IC50 against Eg5 ATPase
pIC50: −log10 of the molar value.
readout: pIC50

1. Cn1c(=O)[nH]c(=O)c2c1nc(NCCCn1ccnc1)n2Cc1ccc2ccccc2c1 ... 5.63

====

molecular target: Eg5 ATPase (Homo sapiens, UniProt P52732); construct: purchased Cytoskeleton, Inc BK060; assay: Microtubule-activated Eg5 ATPase inhibition assay (Kinesin ELISA kit BK060); assay type: biochemical; details: at 10 µM; mean of 3 replicates
Recorded inhibition at 10 µM for the following molecules
readout: inhibition at 10 µM

1. COc1cc2nc(-c3cc(-c4ccccc4Cl)nc4ccccc34)[nH]c2cc1OC ... 35%
2. CCOC(=O)C1=C(C)NC(=S)NC1c1cccc(O)c1 (stereo not shown) [Monastrol, reference compound] ... 60%
3. CS(=O)(=O)c1ccc(CNc2nc3cc(C(=O)O)ccc3n2Cc2ccccc2C(F)(F)F)cc1 ... ~25%
4. COc1ccc(C(=O)N2c3ccc(OC(=O)c4ccco4)cc3C(C)=CC2(C)C)cc1 ... ~25%

====

molecular target: Eg5 ATPase (Homo sapiens, UniProt P52732); construct: purchased Cytoskeleton, Inc BK060; assay: Microtubule-activated Eg5 ATPase inhibition assay (Kinesin ELISA kit BK060); format: biochemical; conditions: at 10 µM; mean of 3 replicates
readout: inhibition at 10 µM (%)

1) Cn1c(=O)[nH]c(=O)c2c1nc(NCCCn1ccnc1)n2Cc1ccc2ccccc2c1 ... 50
2) COc1ccc(CNc2nc3cc(C(=O)O)ccc3n2Cc2ccccc2C(F)(F)F)cc1 ... 40
3) Cc1ccc(O)c(C(=O)c2cnc3c(c2)c(-c2ccc(F)cc2)c(C#N)c(=O)n3C)c1 ... 30

Cited source for all entries: paper PMC10982093
